Target Or Test System: human TLR8 (Homo sapiens, UniProt Q9NR97)
Sequence (Q9NR97 27-1041): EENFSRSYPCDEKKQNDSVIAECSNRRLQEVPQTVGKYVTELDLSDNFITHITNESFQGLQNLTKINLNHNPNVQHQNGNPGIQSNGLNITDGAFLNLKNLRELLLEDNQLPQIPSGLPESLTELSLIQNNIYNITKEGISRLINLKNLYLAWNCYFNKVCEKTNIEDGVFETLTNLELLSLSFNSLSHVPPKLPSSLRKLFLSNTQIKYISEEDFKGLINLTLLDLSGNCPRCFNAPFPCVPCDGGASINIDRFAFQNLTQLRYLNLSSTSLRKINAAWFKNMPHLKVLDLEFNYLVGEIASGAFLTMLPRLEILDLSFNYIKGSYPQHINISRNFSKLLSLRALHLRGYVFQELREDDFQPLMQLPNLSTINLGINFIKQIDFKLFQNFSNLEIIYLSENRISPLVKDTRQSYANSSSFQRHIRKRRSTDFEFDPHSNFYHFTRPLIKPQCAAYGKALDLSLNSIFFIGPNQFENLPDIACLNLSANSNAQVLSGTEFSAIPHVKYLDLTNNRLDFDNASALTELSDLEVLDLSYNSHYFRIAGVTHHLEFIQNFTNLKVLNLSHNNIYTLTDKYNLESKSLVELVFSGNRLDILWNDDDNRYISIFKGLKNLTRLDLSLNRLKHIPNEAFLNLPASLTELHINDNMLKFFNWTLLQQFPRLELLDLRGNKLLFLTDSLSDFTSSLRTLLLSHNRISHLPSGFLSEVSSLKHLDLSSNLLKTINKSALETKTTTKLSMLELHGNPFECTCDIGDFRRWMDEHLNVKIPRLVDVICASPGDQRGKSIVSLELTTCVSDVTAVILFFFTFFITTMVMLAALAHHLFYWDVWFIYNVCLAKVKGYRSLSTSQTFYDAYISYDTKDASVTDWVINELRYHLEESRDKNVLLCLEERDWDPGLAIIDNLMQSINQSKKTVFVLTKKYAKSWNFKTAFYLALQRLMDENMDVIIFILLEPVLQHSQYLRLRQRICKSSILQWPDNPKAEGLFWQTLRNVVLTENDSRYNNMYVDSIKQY
Test: TLR8 inhibition reporter assay (HEK-Blue cells, SEAP reporter, R848 stimulation)
Condition Context: HEK-Blue cells overexpressing human TLR8, SEAP reporter, R848 15.9 μM
Reported pIC50 is given for each of the following molecules.
Please report pIC50 as the negative decimal logarithm of the molar concentration, giving only the number.

Field: example entries. Status: answers known.
Cc1cc(-c2[nH]c3ccc(C4CCC(NC5COC5)CC4)cc3c2C(C)C)cn2ncnc12 (stereo not drawn) [Example 59] :: 9.06
CNC1CCC(c2ccc3[nH]c(-c4cn5cnnc5c(C)c4C)c(C(C)C)c3c2)CC1 (stereo not drawn) [Example 525] :: 7.30
CNC(=O)CN1CCOC(c2ccc3[nH]c(-c4cc(C)nc(C)c4)c(C(C)C)c3c2)C1 (stereo not drawn) [Example 323] :: 7.27
Cc1cc(-c2[nH]c3ccc(C4CCC(N5CCC(F)(F)CC5)CC4)cc3c2C(C)C)cn(C)c1=O (stereo not drawn) [Example 466] :: 7.59
Cc1cc(-c2[nH]c3ccc([C@@H]4C[C@H]4C(=O)N(C)C4CC5CCN4CC5)cc3c2C(C)C)ccn1 (stereo partly drawn) [Example 463] :: 7.82
CCN(CC)CC(=O)NC1CCC(c2ccc3[nH]c(-c4cn5ncnc5c(C)c4C)c(C(C)C)c3c2)CC1 (stereo not drawn) [Example 125] :: 8.00

Problem: What pIC50 value was documented for this molecule, Cc1c(-c2[nH]c3ccc(C4CN(C(C)C)C4)cc3c2C(C)C)cn2ncnc2c1C ?
Result: 8.00

Problem: Here is the next molecule: COc1cc(-c2[nH]c3ccc(C4CCC(NC(=O)CN5CC6(COC6)C5)CC4)cc3c2C(C)C)cn2ncnc12 (stereo not drawn)
Result: 8.60
